Molecular target: MDR1 (P-gp) (Homo sapiens (Human), UniProt P08183)
Sequence (P08183 whole entry): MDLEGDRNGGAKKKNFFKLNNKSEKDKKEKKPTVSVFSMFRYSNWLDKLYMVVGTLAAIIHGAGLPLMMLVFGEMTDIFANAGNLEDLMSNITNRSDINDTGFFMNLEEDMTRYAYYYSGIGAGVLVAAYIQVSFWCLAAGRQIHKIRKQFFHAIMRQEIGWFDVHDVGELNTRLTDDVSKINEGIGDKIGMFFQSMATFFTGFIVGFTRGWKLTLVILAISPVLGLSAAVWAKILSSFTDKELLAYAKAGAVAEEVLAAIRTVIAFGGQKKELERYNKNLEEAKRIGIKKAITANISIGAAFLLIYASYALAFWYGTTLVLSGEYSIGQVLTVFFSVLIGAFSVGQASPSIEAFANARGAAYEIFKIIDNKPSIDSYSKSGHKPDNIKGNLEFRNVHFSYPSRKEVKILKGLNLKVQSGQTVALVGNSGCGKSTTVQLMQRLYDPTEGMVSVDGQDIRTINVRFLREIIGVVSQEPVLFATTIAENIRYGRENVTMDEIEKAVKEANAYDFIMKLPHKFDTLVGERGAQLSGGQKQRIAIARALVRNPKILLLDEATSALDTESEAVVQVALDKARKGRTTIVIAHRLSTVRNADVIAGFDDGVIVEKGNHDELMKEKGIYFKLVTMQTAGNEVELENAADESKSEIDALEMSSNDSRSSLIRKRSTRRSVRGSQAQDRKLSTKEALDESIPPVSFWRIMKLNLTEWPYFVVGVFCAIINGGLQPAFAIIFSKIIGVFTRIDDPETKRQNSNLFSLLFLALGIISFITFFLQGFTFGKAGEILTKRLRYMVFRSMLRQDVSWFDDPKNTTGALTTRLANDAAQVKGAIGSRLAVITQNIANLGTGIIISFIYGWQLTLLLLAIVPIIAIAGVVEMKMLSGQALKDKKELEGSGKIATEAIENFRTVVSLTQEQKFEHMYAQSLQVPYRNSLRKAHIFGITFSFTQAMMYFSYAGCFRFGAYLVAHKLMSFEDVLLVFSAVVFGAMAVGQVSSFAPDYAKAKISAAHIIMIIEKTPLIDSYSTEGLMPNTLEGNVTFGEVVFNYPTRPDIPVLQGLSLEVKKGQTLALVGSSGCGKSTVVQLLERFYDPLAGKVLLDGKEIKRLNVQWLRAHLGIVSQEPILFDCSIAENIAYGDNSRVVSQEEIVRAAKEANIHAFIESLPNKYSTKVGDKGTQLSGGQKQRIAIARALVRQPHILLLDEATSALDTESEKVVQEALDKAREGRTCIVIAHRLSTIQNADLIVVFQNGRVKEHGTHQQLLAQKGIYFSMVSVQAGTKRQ
Experiment: in vitro
Details: pig, LLC-PK1
property_name: efflux ratio at 2 h, 1 µM
Numbers only.

Reference set, count: 3
>>> observed_result("C=CC(=O)N1CCC(Oc2ccc3ncnc(Nc4ccc(Oc5ccn6ncnc6c5)c(C)c4)c3n2)CC1 [Example 1]")
11.4
>>> observed_result("C=CC(=O)N1C[C@H]2C[C@@H]1[C@H](c1ccc3ncnc(Nc4cc(C)c(Oc5cnc6c(c5)ncn6C)cc4F)c3n1)C2 [Example 416]")
0.9
>>> observed_result("C=CC(=O)N1C[C@@H]2CC[C@H]1CN2c1ccc2ncnc(Nc3cc(C)c(Oc4ccn5ncnc5c4)cc3F)c2n1 [Example 319]")
4.8

Provide the reported efflux ratio at 2 h, 1 µM of each entry below, same order.
1. C=CC(=O)N1C[C@H]2C[C@H](c3ccc4ncnc(Nc5cc(C)c(Oc6ccc7c(c6)ncn7C)cc5F)c4n3)C[C@H]2C1 [Example 136]
2. C=CC(=O)N1CC[C@H](c2ccc3ncnc(Nc4ccc(Oc5ccc6c(c5)ncn6C)c(C)c4F)c3n2)CC(C)(C)C1 (racemic) [Example 140]
3. C=CC(=O)N1CCC(c2ccc3ncnc(Nc4ccc(Oc5ccn6ncnc6c5)c(C)c4F)c3n2)CC12CC2 (centres unmarked) [Example 270]
4. C=CC(=O)N1CCN(c2ccc3ncnc(Nc4cc(C)c(Oc5ccn6ncnc6c5)cc4F)c3n2)CC12CC2 [Example 337]
5. C=CC(=O)N1CCN(c2ccc3ncnc(Nc4cc(C)c(Oc5ccc6c(c5)ncn6C)cc4F)c3n2)C[C@@H]1C1CC1 [Example 252]
6. C=CC(=O)N1[C@@H]2CC[C@H]1[C@H](c1ccc3ncnc(Nc4ccc(Oc5cnc6c(c5)ncn6C)c(C)c4)c3n1)C2 [Example 408]
7. C=CC(=O)N1CCN(c2ccc3ncnc(Nc4cc(Cl)c(Oc5ccn6ncnc6c5)cc4F)c3n2)CC1(C)C [Example 326]

**A:**
1.7
1.2
1.6
1.4
1
1.1
1.5

Look up efflux ratio at 2 h, 1 µM for the entries below, preserving their order.
1. C=CC(=O)N1CCN(c2ccc3ncnc(Nc4ccc(Oc5ccn6ncnc6c5)c(C)c4F)c3n2)C[C@H]1C(C)(C)C [Example 303]
2. C=CC(=O)N1CCN(c2ccc3ncnc(Nc4cc(C)c(Oc5ccc6c(c5)ncn6C)cc4F)c3n2)C[C@H]1C(C)C [Example 254]
3. C=CC(=O)N1CCC(c2nc3c(Nc4ccc(Oc5ccc6c(c5)ncn6C)c(C)c4)ncnc3cc2OC)CC1 [Example 42]
4. C=CC(=O)N1CCN(c2ccc3ncnc(Nc4cc(C)c(Oc5cnc6c(c5)ncn6C)cc4F)c3n2)CC1(C)C [Example 357]

**A:**
[1.3, 1.3, 2.5, 1.6]
